Listing: protein stability index of selected variants
B1: LYSMD4 (parent)
chain: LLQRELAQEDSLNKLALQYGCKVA

Variants of: B1
measurement-protocol: protein stability index of a GFP-peptide fusion (GPS, HEK-293T) (PSI 1-6); higher = more stable;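 note: lentivirally expressed fusions sorted by FACS into six bins by GFP to DsRed ratio, PSI derived from sequencing read proportions per bin multiplied by bin number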
experimental-setup: c terminus: a fixed tail appended
Lab note: record just the number, no unit beside it.

Here are 3 variants together with their reported answers.
D10H	1.22
L17Y	1.18
N13T	1.3

Query: Endpoint output: protein stability index of V23S . Value?
Reply: 2.9

Query: Endpoint output: protein stability index of E9W . Value?
Reply: 1.02
